# assayedSystem: T1, human GIP receptor (human) (UniProt P48546)
# T1 sequence (looked up): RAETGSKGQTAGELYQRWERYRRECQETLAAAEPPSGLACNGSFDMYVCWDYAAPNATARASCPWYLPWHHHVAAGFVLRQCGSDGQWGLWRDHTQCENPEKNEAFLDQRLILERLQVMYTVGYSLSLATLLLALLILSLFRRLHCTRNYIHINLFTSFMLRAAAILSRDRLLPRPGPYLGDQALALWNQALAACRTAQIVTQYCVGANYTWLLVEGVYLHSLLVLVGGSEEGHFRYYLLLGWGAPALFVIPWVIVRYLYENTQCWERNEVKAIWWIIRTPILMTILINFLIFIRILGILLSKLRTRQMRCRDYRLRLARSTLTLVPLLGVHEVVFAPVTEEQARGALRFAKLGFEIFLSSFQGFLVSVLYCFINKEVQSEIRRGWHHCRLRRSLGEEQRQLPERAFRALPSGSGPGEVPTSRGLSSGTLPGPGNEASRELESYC
# assayText: cell-based or functional assay
recordedMetric: cAMP Rel EC50, nM (1% HSA) (nM)

- binder: "YXQGTFTSDXSRXLDKKAQXAFIEYLIAGGPSSGAPPPSGSEE (Aib, 4Pal, αMeL, Me4Pal; γGlu2-C18 diacid Lys; C-term amide; synthetic construct; SITE 2: note = 2-Aminoisobutyric Acid; SITE 10: note = 3-(4-Pyridyl)-L-alanine; SITE 13: note = alpha-methyl-leucine; SITE 17: note = Lysine is chemically modified through conjugation of the epsilon-amino group of the Lysine side chain with (gamma-Glu)2-CO-(CH2)16-CO2H; SITE 20:) [Example 962]"
  recordedMetric: "cAMP Rel EC50, nM (1% HSA)"
  valueMeasured: 9.71
- binder: "YXQGTFTSDXSXXLDKKAQXAFIEYLIAGGPSSGEPPPSGTEEE (Aib, 4Pal, Orn, Me4Pal; lipidated Lys; C-terminal amide; synthetic construct; SITE 2: note = 2-Aminoisobutyric Acid; SITE 10: note = 3-(4-Pyridyl)-L-alanine; SITE 12: note = L-ornithine; SITE 13: note = alpha-methyl-leucine; SITE 17: note = Lysine is chemically modified through conjugation of the epsilon-amino group of the Lysine side chain with (gamma-Gl)) [Example 982]"
  recordedMetric: "cAMP Rel EC50, nM (1% HSA)"
  valueMeasured: 19.4
- binder: "YXQGTFTSDFSQXLDKKAQXAFIEYLLEXGESSGAPPPSGE (synthetic construct; SITE 2: note = 2-Aminoisobutyric Acid; SITE 13: note = alpha-methyl-leucine; SITE 17: note = Lysine is chemically modified through conjugation of the epsilon-amino group of the Lysine side chain with (2-[2-(2-Amino-ethoxy)-ethoxy]-acetyl)-(gamma-Glu)-CO-(CH2) 16-CO2H; SITE 20: n) [Example 789]"
  recordedMetric: "cAMP Rel EC50, nM (1% HSA)"
  valueMeasured: 20.4
- binder: "YXQGTFTSDFSKXLDKKAQXAFIEYLIEXGESSGAPPPSGE (acylated; synthetic construct; SITE 2: note = 2-Aminoisobutyric Acid; SITE 13: note = alpha-methyl-leucine; SITE 17: note = Lysine is chemically modified through conjugation of the epsilon-amino group of the Lysine side chain with (2-[2-(2-Amino-ethoxy)-ethoxy]-acetyl)-(gamma-Glu)-CO-(CH2) 16-CO2H; SITE 20: n) [Example 217]"
  recordedMetric: "cAMP Rel EC50, nM (1% HSA)"
  valueMeasured: 15
- binder: "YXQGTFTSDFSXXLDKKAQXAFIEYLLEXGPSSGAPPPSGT (synthetic construct; SITE 2: note = 2-Aminoisobutyric Acid; SITE 12: note = L-ornithine; SITE 13: note = alpha-methyl-leucine; SITE 17: note = Lysine is chemically modified through conjugation of the epsilon-amino group of the Lysine side chain with (2-[2-(2-Amino-ethoxy)-ethoxy]-acetyl)2-(gamma-Glu)) [Example 165]"
  recordedMetric: "cAMP Rel EC50, nM (1% HSA)"
  valueMeasured: 18.6
- binder: "YXQGTFTSDFSXXLDKKAQXAFIEYLLEAGPSSXAPPPSGT (acylated lipid side chain; synthetic construct; SITE 2: note = 2-Aminoisobutyric Acid; SITE 12: note = L-ornithine; SITE 13: note = alpha-methyl-leucine; SITE 17: note = Lysine is chemically modified through conjugation of the epsilon-amino group of the Lysine side chain with (2-[2-(2-Amino-ethoxy)-ethoxy]-acetyl)-(gamma-Glu)) [Example 214]"
  recordedMetric: "cAMP Rel EC50, nM (1% HSA)"
  valueMeasured: 15.1
